TEST_TARGET: human c-Met (HGFR), full length, on the cell surface (human, UniProt P08581 25-1390)
Sequence (P08581 25-1390 limits assumed): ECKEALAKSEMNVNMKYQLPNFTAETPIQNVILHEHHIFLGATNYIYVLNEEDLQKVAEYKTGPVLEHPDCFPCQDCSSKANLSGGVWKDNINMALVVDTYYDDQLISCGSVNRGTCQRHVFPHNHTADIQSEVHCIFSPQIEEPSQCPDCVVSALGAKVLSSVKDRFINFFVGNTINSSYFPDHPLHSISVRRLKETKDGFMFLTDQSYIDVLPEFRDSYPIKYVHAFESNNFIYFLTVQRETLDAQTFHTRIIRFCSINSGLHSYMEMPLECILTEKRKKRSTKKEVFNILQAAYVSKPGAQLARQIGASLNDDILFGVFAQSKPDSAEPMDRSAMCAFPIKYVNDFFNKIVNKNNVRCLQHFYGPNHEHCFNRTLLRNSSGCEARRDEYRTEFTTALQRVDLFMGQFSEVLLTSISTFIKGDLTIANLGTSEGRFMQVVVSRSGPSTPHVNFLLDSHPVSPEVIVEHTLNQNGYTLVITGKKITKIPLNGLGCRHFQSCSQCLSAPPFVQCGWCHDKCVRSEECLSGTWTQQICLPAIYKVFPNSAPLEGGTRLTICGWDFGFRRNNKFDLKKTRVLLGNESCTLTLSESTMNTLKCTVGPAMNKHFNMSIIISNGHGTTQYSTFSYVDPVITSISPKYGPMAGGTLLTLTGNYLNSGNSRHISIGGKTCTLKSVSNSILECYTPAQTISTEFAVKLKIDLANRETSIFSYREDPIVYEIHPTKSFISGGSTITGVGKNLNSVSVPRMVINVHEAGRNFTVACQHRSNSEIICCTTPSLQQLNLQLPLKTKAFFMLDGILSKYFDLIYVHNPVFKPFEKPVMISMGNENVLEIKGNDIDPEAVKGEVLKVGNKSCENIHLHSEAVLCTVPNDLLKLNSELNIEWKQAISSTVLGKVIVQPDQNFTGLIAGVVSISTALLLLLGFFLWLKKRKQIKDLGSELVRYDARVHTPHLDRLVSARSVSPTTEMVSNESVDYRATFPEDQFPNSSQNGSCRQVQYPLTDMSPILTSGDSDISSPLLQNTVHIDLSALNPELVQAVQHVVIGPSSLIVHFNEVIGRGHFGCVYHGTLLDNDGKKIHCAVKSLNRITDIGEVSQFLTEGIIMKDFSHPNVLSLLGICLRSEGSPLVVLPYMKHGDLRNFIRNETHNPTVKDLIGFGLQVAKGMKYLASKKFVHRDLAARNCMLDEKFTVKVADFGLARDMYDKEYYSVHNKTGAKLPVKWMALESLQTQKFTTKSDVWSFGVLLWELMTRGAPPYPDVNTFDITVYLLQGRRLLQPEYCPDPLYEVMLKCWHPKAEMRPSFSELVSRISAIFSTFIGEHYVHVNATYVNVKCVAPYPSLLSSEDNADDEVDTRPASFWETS
PROCEDURE_SUMMARY: cell-based or functional assay
PARAMETER_MEASURED: IC50 2, in vitro cytotoxicity, PC-3, -HGF (nM)
Give bare numbers, in nM.

q: Give reported IC50 2, in vitro cytotoxicity, PC-3, -HGF value for ADC1a (antibody, human IgG1, kappa, V domains shown, vc-seco-DUBA linker-drug on the engineered cysteine at HC position 41 (Kabat); DAR 1.7) VH: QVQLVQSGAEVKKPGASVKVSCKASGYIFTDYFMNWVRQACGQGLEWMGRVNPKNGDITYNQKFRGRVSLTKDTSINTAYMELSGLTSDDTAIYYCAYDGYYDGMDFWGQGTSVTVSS VL: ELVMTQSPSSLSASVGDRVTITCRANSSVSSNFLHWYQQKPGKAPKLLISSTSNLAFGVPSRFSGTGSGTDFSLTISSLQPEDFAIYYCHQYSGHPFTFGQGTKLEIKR
a: 224
